- System: rodent lifetime carcinogenesis bioassay, tumor incidence TD50
- ASSAY: carcinogenic potency in animals, long-term in vivo studies, CPDB compilation (AID 1745844)
- CONDITION_LABEL: rat; strain Fischer 344; females; in feed; site: liver; lesion: hepatocellular carcinoma; dosed 40 weeks; study length 66 weeks
REPORTED_PROPERTY: TD50 (mg/kg/day)

- CHEM_SMILES: "Nc1c(Br)cc(Br)c2c1C(=O)c1ccccc1C2=O"
  VAL: 167

----------
- System: rodent lifetime carcinogenesis bioassay, tumor incidence TD50
- ASSAY: carcinogenic potency in animals, long-term in vivo studies, CPDB compilation (AID 1745844)
- CONDITION_LABEL: rat; strain ACI; males; in feed; site: ileum; lesion: adenoma; dosed 121 weeks; study length 121 weeks
Activity calls are given as the source filed them. The rule behind the calls is not given here.

- CHEM_SMILES: "C[C@@H]1O[C@@H](OC[C@H]2O[C@@H](Oc3c(-c4ccc(O)c(O)c4)oc4cc(O)cc(O)c4c3=O)[C@H](O)[C@@H](O)[C@@H]2O)[C@H](O)[C@H](O)[C@H]1O"
  TD50: "72300 mg/kg/day (inactive)"
